B1: Kinesin-like protein KIF16B, residues 1213 to 1273; numbered along this chain, Q96L93 (parent)
chain: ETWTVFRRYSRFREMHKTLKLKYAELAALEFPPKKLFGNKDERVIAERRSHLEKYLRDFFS

# Variants of: B1
# assay.comment: abundance fitness (aPCA) (normalised: wild type 0, dead -1); higher = more abundant; growth selection in yeast, the domain comes from the species named
# cond: Homo sapiens
Reported abundance fitness is given for each of the following variants.

{"mut": "R8I", "abundance fitness": 0.37}
{"mut": "D41F", "abundance fitness": 0.149}
{"mut": "E14M", "abundance fitness": -0.41}
{"mut": "G38W", "abundance fitness": -0.144}
{"mut": "L56S", "abundance fitness": -0.453}
{"mut": "E14S", "abundance fitness": -0.229}
{"mut": "L26H", "abundance fitness": -0.946}
{"mut": "L56R", "abundance fitness": -0.584}
{"mut": "D41K", "abundance fitness": 0.028}
{"mut": "Y55C", "abundance fitness": 0.265}
{"mut": "F37L", "abundance fitness": -0.271}
{"mut": "W3K", "abundance fitness": -0.051}
{"mut": "M15F", "abundance fitness": -0.095}
{"mut": "F31C", "abundance fitness": -0.644}
{"mut": "R49L", "abundance fitness": 0.279}
{"mut": "D58R", "abundance fitness": 0.161}
{"mut": "L52W", "abundance fitness": 0.217}
{"mut": "F12E", "abundance fitness": -0.941}
{"mut": "N39P", "abundance fitness": -0.102}
{"mut": "F37P", "abundance fitness": -0.573}
{"mut": "F12K", "abundance fitness": -1.08}
{"mut": "S10F", "abundance fitness": 0.099}
{"mut": "R8L", "abundance fitness": 0.317}
{"mut": "Y23F", "abundance fitness": 0.296}
{"mut": "R48S", "abundance fitness": -0.018}
{"mut": "P33G", "abundance fitness": 0.279}
{"mut": "A28R", "abundance fitness": -0.036}
{"mut": "L36D", "abundance fitness": -0.596}
{"mut": "F59Q", "abundance fitness": -0.51}
{"mut": "H51N", "abundance fitness": -0.436}
{"mut": "L52K", "abundance fitness": -0.184}
{"mut": "G38A", "abundance fitness": -0.202}
{"mut": "E30S", "abundance fitness": 0.151}
{"mut": "R7G", "abundance fitness": 0.186}
{"mut": "I45G", "abundance fitness": 0.264}
{"mut": "R7A", "abundance fitness": 0.022}
{"mut": "K22A", "abundance fitness": -0.168}
{"mut": "L56I", "abundance fitness": -0.011}
{"mut": "R43G", "abundance fitness": 0.209}
{"mut": "T4R", "abundance fitness": -0.256}
{"mut": "L21C", "abundance fitness": -0.131}
{"mut": "D58Q", "abundance fitness": -0.153}
{"mut": "A46P", "abundance fitness": 0.256}
{"mut": "K22I", "abundance fitness": 0.069}
{"mut": "E42C", "abundance fitness": 0.044}
{"mut": "L19D", "abundance fitness": -1.13}
